method: Pharmacokinetic analysis and plasma drug concentrations (LC-MS/MS)
Type: in vivo, APOE*3Leiden.CETP mice
run-parameters: APOE*3Leiden.CETP, mouse, plasma, po; repeated dose, BID, 150 mg/kg, after 16 weeks; read-out: AUC0–24
result-type: AUC(0-t) (ng·h/mL)
Dear colleague, please return just the value in ng·h/mL, with no unit written.

Query :: Looking for the measured AUC(0-t) of `Cc1ccc(NC(=O)c2ccc(CN3CCN(C)CC3)cc2)cc1Nc1nccc(-c2cccnc2)n1` , can you help?
Result :: 78100

----------
method: Pharmacokinetic analysis and plasma drug concentrations (LC-MS/MS)
Format: in vivo, APOE*3Leiden.CETP mice
run-parameters: APOE*3Leiden.CETP, mouse, plasma, po; repeated dose, QD, 30 mg/kg, after 16 weeks; read-out: AUC0–24
result-type: AUC(0-t) (ng·h/mL)
Dear colleague, please return just the value in ng·h/mL, with no unit written.

Query :: Looking for the measured AUC(0-t) of Cc1cn(-c2cc(NC(=O)c3ccc(C)c(Nc4nccc(-c5cccnc5)n4)c3)cc(C(F)(F)F)c2)cn1 [Nilotinib, nilotinib] , can you help?
Result :: 73800
